target: equine FcRn (large alpha subunit p51) / equine beta-2-microglobulin complex, biotinylated (equine) (UniProt P30441); assay: SPR (Biacore), pH 6
Measured Kd values are reported for all entries that follow.
measure name: Kd (nM)

binder	test value
equine IgG1 N434F (antibody, part only; not given: variable domains, not shown: another chain or arm of the molecule) constant: ASTTAPKVFALAPGCGTTSDSTVALGCLVSGYFPEPVKVSWNSGSLTSGVHTFPSVLQSSGFYSLSSMVTVPASTWTSETYICNVVHAASNFKVDKRIEPIPDNHQKVCDMSKCPKCPAPELLGGPSVFIFPPNPKDTLMITRTPEVTCVVVDVSQENPDVKFNWYMDGVEVRTATTRPKEEQFNSTYRVVSVLRIQHQDWLSGKEFKCKVNNQALPQPIERTITKTKGRSQEPQVYVLAPHPDELSKSKVSVTCLVKDFYPPEINIEWQSNGQPELETKYSTTQAQQDSDGSYFLYSKLSVDRNRWQQGTTFTCGVMHEALHFHYTQKNVSKNPGK	2.83
equine IgG1 M428A (antibody, part only; not given: variable domains, not shown: another chain or arm of the molecule) constant: ASTTAPKVFALAPGCGTTSDSTVALGCLVSGYFPEPVKVSWNSGSLTSGVHTFPSVLQSSGFYSLSSMVTVPASTWTSETYICNVVHAASNFKVDKRIEPIPDNHQKVCDMSKCPKCPAPELLGGPSVFIFPPNPKDTLMITRTPEVTCVVVDVSQENPDVKFNWYMDGVEVRTATTRPKEEQFNSTYRVVSVLRIQHQDWLSGKEFKCKVNNQALPQPIERTITKTKGRSQEPQVYVLAPHPDELSKSKVSVTCLVKDFYPPEINIEWQSNGQPELETKYSTTQAQQDSDGSYFLYSKLSVDRNRWQQGTTFTCGVAHEALHNHYTQKNVSKNPGK	76
